Hi there, I'd appreciate the recorded viability, T/C for every entry that follows.
- Test system: 454973-116-R2-J3-PDC complex spheroid viability
- Protocol details: Anticancer human tumor 454973-116-R2-J3-PDC patient-derived pancreatic carcinoma cell line growth inhibition [POLQ]
- Measurement parameters: second compound 3.16 µM; first compound 3.16 µM; hits give low values

Please give the documented viability, T/C of COc1cccc2c1C(=O)c1c(O)c3c(c(O)c1C2=O)CC(O)(C(=O)CO)CC3OC1CC(N)C(O)C(C)O1 (stereo not given) + Nc1ccc(C#CCN(C(=O)Cc2ncc(C(F)(F)F)cc2C(F)(F)F)c2ccc(F)cc2)nn1
0.55%

Quick one: give measured viability, T/C for CC1COCCN1c1cc(C2(S(C)(=N)=O)CC2)nc(-c2ccnc3[nH]ccc23)n1 (stereo not given) + COC1C(OC(N)=O)C(O)C(Oc2ccc3c(O)c(NC(=O)c4ccc(O)c(CC=C(C)C)c4)c(=O)oc3c2C)OC1(C)C
75.8%

Give me measured viability, T/C, please, for this compound: COc1cc(C2c3cc4c(cc3C(OC3OC5COC(C)OC5C(O)C3O)C3COC(=O)C23)OCO4)cc(OC)c1O (stereo not given) + Cc1cccc(N(C)C(=O)C2C(O)CCN2c2nc(C)cc(C(F)(F)F)c2C#N)c1
23.1%

Look up viability, T/C of O=C(Nc1ccc(O)c(NS(=O)(=O)c2ccc(F)cc2)c1)c1ccc(-c2ccccc2)cc1 + COC1C(OC(N)=O)C(O)C(Oc2ccc3c(O)c(NC(=O)c4ccc(O)c(CC=C(C)C)c4)c(=O)oc3c2C)OC1(C)C and report it.
118%

Give a short answer stating reported viability, T/C for O=C(c1cc(Cc2n[nH]c(=O)c3ccccc23)ccc1F)N1CCN(C(=O)C2CC2)CC1 + COC1C(OC(N)=O)C(O)C(Oc2ccc3c(O)c(NC(=O)c4ccc(O)c(CC=C(C)C)c4)c(=O)oc3c2C)OC1(C)C .
94.7%

###

What viability, T/C was measured for each of the following?
- Tested on: 454973-116-R2-J3-PDC complex spheroid viability
- Protocol details: Anticancer human tumor 454973-116-R2-J3-PDC cell line growth inhibition [POLQ];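 also: spheroids exposed to drugs for seven days before measurement; percent viability relative to DMSO vehicle control wells taken as 100%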
- Measurement parameters: second compound 1 µM; first compound 0.316 µM; hits give low values

Consider the compound CCc1cc2c(N3CCc4c(cc(Cn5ccnc5)cc4-c4cn(C)nc4C(F)(F)F)C3=O)cc(C)nc2c(OC)n1 + COC1C(OC(N)=O)C(O)C(Oc2ccc3c(O)c(NC(=O)c4ccc(O)c(CC=C(C)C)c4)c(=O)oc3c2C)OC1(C)C tested on 454973-116-R2-J3-PDC complex spheroid viability; state its viability, T/C.
105%

With 454973-116-R2-J3-PDC complex spheroid viability as the test system, provide measured viability, T/C for this compound: CCCS(=O)(=O)Nc1ccc(F)c(C(=O)c2c[nH]c3ncc(-c4ccc(Cl)cc4)cc23)c1F + Nc1ccc(C#CCN(C(=O)Cc2ncc(C(F)(F)F)cc2C(F)(F)F)c2ccc(F)cc2)nn1
116%

With 454973-116-R2-J3-PDC complex spheroid viability as the test system, provide measured viability, T/C for this compound: CCc1cc2c(N3CCc4c(cc(Cn5ccnc5)cc4-c4cn(C)nc4C(F)(F)F)C3=O)cc(C)nc2c(OC)n1 + Cc1cccc(N(C)C(=O)C2C(O)CCN2c2nc(C)cc(C(F)(F)F)c2C#N)c1
78.4%
